Each entry below carries its reported mass density.
Assay Conditions: 328.15 K; 101.33 kPa; Liquid; Vibrating tube method
Observation Type: mass density (kg/m3)

# Compound, Observation Type, Reported Result
rows = [
    ("CCCCCCCCCCCCCCCCCC(=O)OCC [ethyl octadecanoate]", "mass density", 833.9),
    ("CCCCCCCC/C=C\\CCCCCCCC(=O)OCC [ethyl (Z)-9-octadeceneoate]", "mass density", 844),
    ("CCCCCCCCCCCCCC(=O)OC [methyl tetradecanoate]", "mass density", 840.8),
    ("CCCCCCCCCCCCCCCC(=O)OCC [ethyl hexadecanoate]", "mass density", 834.2),
    ("CCCCCCCCCCCCCCCC(=O)OC [methyl hexadecanoate]", "mass density", 839.6),
    ("CCCCCCCCCCCCCC(=O)OCC [ethyl tetradecanoate]", "mass density", 834.5),
    ("CCCCCCCCCCCC(=O)OC [methyl dodecanoate]", "mass density", 842.1),
    ("CCCCCCCCCC(=O)OC [methyl decanoate]", "mass density", 843.6),
    ("CCCCCCCC(=O)OC [methyl octanoate]", "mass density", 846.4),
    ("CCCCCCCCCC(=O)OCC [ethyl decanoate]", "mass density", 835.7),
    ("CCCCCCCCCCCCCCCCCC(=O)OC [methyl octadecanoate]", "mass density", 838.9),
]
